Origin of values: patent US20250152729A1

Molecular target: T1, cynomolgus SEMA4A expressed on expi293 cells (UniProt ID G7NV79) (cynomolgus, UniProt Q9H3S1 33-761 (human entry))
T1 construct: Transient transfection in expi293 cells; also called cyno SEMA4A
T1 chain: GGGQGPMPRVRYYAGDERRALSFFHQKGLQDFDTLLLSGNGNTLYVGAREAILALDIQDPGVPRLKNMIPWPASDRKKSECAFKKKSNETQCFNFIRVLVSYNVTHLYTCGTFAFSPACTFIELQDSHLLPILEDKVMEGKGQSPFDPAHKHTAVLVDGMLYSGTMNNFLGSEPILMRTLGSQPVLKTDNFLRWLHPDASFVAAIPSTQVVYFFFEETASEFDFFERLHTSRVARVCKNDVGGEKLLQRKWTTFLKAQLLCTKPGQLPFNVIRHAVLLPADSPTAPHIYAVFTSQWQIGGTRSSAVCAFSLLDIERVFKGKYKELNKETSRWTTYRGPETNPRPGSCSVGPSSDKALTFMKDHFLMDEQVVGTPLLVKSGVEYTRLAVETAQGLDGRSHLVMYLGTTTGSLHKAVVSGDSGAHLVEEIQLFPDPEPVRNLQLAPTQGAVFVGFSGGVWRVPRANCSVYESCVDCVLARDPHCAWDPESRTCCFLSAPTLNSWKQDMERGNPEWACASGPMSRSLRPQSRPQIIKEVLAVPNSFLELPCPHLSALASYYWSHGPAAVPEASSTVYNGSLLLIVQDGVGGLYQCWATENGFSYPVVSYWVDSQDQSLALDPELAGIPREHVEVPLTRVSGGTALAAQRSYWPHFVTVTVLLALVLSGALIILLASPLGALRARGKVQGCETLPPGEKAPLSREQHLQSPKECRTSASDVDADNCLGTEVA
Test: Mirrorball direct binding, dilution series on expi293 cells transiently transfected with cyno SEMA4A, anti-human Alexa Fluor 647
property_measured: binding result

*Q* Give reported binding result value for 5Hg5-5Lg2 human Alya IgG1 (antibody, V domains shown, Humanised 5E3; human IgG1 Alya constant (239iCys, S442C, EU), lambda light chain; purified, unconjugated; also called 5HE5/5Lg2) VH: EVQLVQSGAEVKKPGESLRISCKGSGYSFTDYWMHWVRQMPGKGLEWMGAIDTSDSYTSYNQKFKGQVTISADKSISTAYLQWSSLKASDTAMYYCARDYGNFYYYAMDYWGQGTLVTVSS VL: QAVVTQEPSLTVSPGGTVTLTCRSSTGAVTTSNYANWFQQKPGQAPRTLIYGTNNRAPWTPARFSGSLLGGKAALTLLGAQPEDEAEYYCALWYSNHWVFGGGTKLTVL
*A* binds

*Q* Write down binding result measured for item 5Hg2-5Lg3 human Alya IgG1 (antibody, V domains shown, Humanised 5E3; human IgG1 Alya constant (239iCys, S442C, EU), lambda light chain; purified, unconjugated) VH: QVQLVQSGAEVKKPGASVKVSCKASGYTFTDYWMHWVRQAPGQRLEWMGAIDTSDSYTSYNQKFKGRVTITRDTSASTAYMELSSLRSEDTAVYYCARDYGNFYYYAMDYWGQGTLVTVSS VL: QTVVTQEPSFSVSPGGTVTLTCRSSTGAVTTSNYANWYQQTPGQAPRTLIYGTNNRAPGVPDRFSGSILGNKAALTITGAQADDESDYYCALWYSNHWVFGGGTKLTVL
*A* binds
